Data provenance is PubChem BioAssay AID330.

Record form. Attribute: T/C. Fill in for each entry.
- Tested on: P388 leukemia ip, CD2F1 mice, survival T/C
- test-details: NCI In Vivo Anticancer Drug Screen. Data for tumor model P388 Leukemia (intraperitoneal) in CD2F1 (CDF1) mice
- run-conditions: endpoint: median survival time; dose: 50.0 mg/kg/injection; schedule: Q01DX005 (ip); vehicle: saline with Tween-80; higher = longer survival
Toxic doses and inconclusive results are not listed. Peptide text beside a SMILES is read from it.

Give the value of T/C reported for the following: OC1c2ccccc2-c2ccc(N(Cc3ccc(Br)cc3)Cc3ccc(Br)cc3)cc21 (stereo unspecified) 100 % of control

Complete the entry with T/C for O=C(CC1(O)C(=O)Nc2ccccc21)c1ccc(Br)cc1 (stereo unspecified) 108 % of control

Consider the compound COc1ccc(S(=O)(=O)N/N=C\c2cccc([N+](=O)[O-])c2O)c(OC)c1OC and give its recorded T/C. 100 % of control

Fill in T/C for record CCC/C=C/C1SCC(=O)N1c1nncs1 (stereo unspecified) 102 % of control

Quick one: give measured T/C for CCB1OC2OC3C4OB(CC)OC4OC3C2O1 (stereo unspecified) 103 % of control

Read off the recorded T/C for CCCCN(CCCC)C(=N)OC1CCCCC1 100 % of control

State, in one line, measured T/C of COc1ccc(CN2CCCN(Cc3ccc(OC)cc3)C2c2cc3ccccc3c3ccccc23)cc1 99 % of control

# return recorded T/C for entry CC(C)C(NC(=O)C(N)CCCN=C(N)N)C(=O)O (stereo not drawn) (H-Arg-Val-OH; configuration not given here) 91 % of control

Report T/C, nothing else, for this compound: NC(=O)C(Br)(Br)C(=O)c1nc(N)nc(N)n1 107 % of control

Look up T/C of CCC(C)C(NC(=O)C(C)NC(=O)OCc1ccccc1)C(=O)O (stereo unspecified) and report it. 101 % of control

Annotate the compound C(CCc1nn[nH]n1)CCC1CCCCC1 with its measured T/C. 96 % of control

# return recorded T/C for entry c1ccc(CN2COc3c4c(c5ccccc5c3C2)CN(Cc2ccccc2)CO4)cc1 90 % of control

Query T/C for CN(C)c1ccc(C(Cc2ccc3ccccc3n2)Cc2ccc3ccccc3n2)cc1 99 % of control

Return T/C for the following compound: Cc1ccc(S(=O)(=O)OC2C(OCc3ccccc3)OCC(O)C2O)cc1 (stereo unspecified) 102 % of control

Kindly indicate its recorded T/C. Item: O=C1OC2CCCC1O2 (stereo unspecified) 106 % of control

State, in one line, measured T/C of C/C(=N\NC(=S)N1CC2CCC(CC2)C1)c1nccs1 154 % of control

Tell us which T/C value is on record for CC1CC(O)C(CN(C)C)C(C)(C)C1 (stereo unspecified) 106 % of control

Provide measured T/C value, entry: CC1=NNC(=O)C1N=Nc1c(C)n(C)n(-c2ccccc2)c1=O (stereo unspecified) 100 % of control

Could you please provide reported T/C for Cc1cc(NC(=O)c2ccc(NC(=O)c3ccc(N)cc3)cc2)ccc1N=Nc1ccc2c(O)c(N=Nc3ccc4cc(S(=O)(=O)O)ccc4c3)c(S(=O)(=O)O)cc2c1 ? Thanks! 94 % of control

State, in one line, measured T/C of Cc1cc(=O)c2c3c(ccc2[nH]1)Oc1ccccc1O3 101 % of control

Assign T/C to the following record: Cc1ccc(S(=O)(=O)OC2COC(OCc3ccccc3)C(OS(=O)(=O)c3ccc(C)cc3)C2O)cc1 (stereo unspecified) 100 % of control

Consider the compound O=c1c2[nH]c3ccccc3sc=2c(=O)n1-c1ccccc1Cl . State its measured T/C. 98 % of control

For the compound CC(OCc1ccccc1)C(NC(=O)OC(C)(C)C)C(=O)O (stereo unspecified) , report T/C. 103 % of control

Supply recorded T/C for O=C(CCCCCCCC(=O)Nc1ccc2[nH]c3ccccc3c(=O)c2c1)Nc1ccc2[nH]c3ccccc3c(=O)c2c1 here. 107 % of control

Please report the measured T/C for CCCN1C(=O)CC(NC(C)=O)C1=O (stereo unspecified) 107 % of control

// fetch T/C given entry CN1C(=O)C2CC(=O)N(Cc3ccccc3)C(=O)C2C1=O (stereo unspecified) 96 % of control
